tested on: OVCAR-3 ovarian; assay: NCI-60 one-dose screen, 48 h; conditions: 10 µM unless noted
Compounds without any hit were thinned out: in the full panel of roughly 83,000, 20% have a hit. Activity calls are given as the source filed them. Rule for the calls: active = growth percent below 10; inactive = the rest.
Your response should consist of one outcome taken from 1 (active), -1 (inactive)

**Q:** Identify the outcome logged in this assay for the molecule shown: COc1cc(-c2nn(-c3cccc(NC(=O)c4ccc(N5CCOCC5)c(C(F)(F)F)c4)c3)cc2-c2ccncc2)ccc1Cl
**A:** 1

**Q:** Identify the outcome logged in this assay for the molecule shown: COc1cc(/C=C/C(=O)c2cccc(-n3cc(-c4cc(OC)c(OC)c(OC)c4)[nH]c3=O)c2)cc(OC)c1OC
**A:** 1

**Q:** Identify the outcome logged in this assay for the molecule shown: O=C(NNC(=O)N1c2ccccc2C=Cc2ccccc21)c1ccc2ccccc2c1
**A:** -1

**Q:** Identify the outcome logged in this assay for the molecule shown: COC(=O)[C@]12CC[C@@H](C)[C@H](C)[C@@H]1C1=CC[C@@H]3[C@@]4(C)C(C=O)=C[C@@](C)(COC(=O)c5ccco5)[C@@H]4[C@H](O)C[C@@]3(C)[C@]1(C)CC2
**A:** 1

**Q:** Identify the outcome logged in this assay for the molecule shown: C=C1CCC2C3(C)COC(C)(C)OC3CCC2(C)C1C/C=C1/C(=O)OCC1Oc1ccccc1OC (centres undefined)
**A:** -1

**Q:** Identify the outcome logged in this assay for the molecule shown: COc1ccc(/C=C2\Oc3cc(OCCCN4CCCC4)ccc3C2=O)cc1
**A:** -1

**Q:** Identify the outcome logged in this assay for the molecule shown: CCN(CC)CCC(CNc1ccnc2cc(Cl)ccc12)c1ccc(Cl)cc1 (centres undefined)
**A:** -1

**Q:** Identify the outcome logged in this assay for the molecule shown: CCC1=CCC[C@@]2(C)CCC[C@@]3(C)CCCC(C)(C)[C@]1([O-])[O+]32
**A:** -1

**Q:** Identify the outcome logged in this assay for the molecule shown: COc1cc(/C(C#N)=C/c2ccc3c(c2OC)OCO3)cc2c1OCO2
**A:** 1

**Q:** Identify the outcome logged in this assay for the molecule shown: Cc1ccc(-c2nc(C#N)c(S(=O)(=O)n3nc(-c4ccccc4)cc3N)o2)cc1
**A:** -1

**Q:** Identify the outcome logged in this assay for the molecule shown: COc1cc(-c2nn(-c3cccc(NC(=O)Nc4ccc(Cl)c(Cl)c4)c3)cc2-c2ccncc2)ccc1Cl
**A:** 1

**Q:** Identify the outcome logged in this assay for the molecule shown: CN(C)CC(C(=O)c1ccccc1)c1ccccc1 (centres undefined)
**A:** 1

**Q:** Identify the outcome logged in this assay for the molecule shown: N#C/C(=C1C=C/C(=N/O)C(Cl)=C/1)c1ccc(Cl)cc1
**A:** -1

**Q:** Identify the outcome logged in this assay for the molecule shown: COc1cc(/C=C/C(=O)N2CCN(C(=O)/C=C/c3cc(OC)c(OC)c(OC)c3)CC2)cc(OC)c1OC
**A:** -1

**Q:** Identify the outcome logged in this assay for the molecule shown: COc1ccc(C2=CC(c3cc(OC)c(OC)c(OC)c3)NC(=O)N2)cc1OC (centres undefined)
**A:** 1

**Q:** Identify the outcome logged in this assay for the molecule shown: O=C(Oc1ccccc1[N+](=O)[O-])C1CCCN1C(=O)OCc1ccccc1 (centres undefined)
**A:** -1

**Q:** Identify the outcome logged in this assay for the molecule shown: CC12CCC3C4(C)COC(c5ccco5)OC4CCC3(C)C1CC(C1=CCOC1=O)O2 (centres undefined)
**A:** -1

**Q:** Identify the outcome logged in this assay for the molecule shown: ClC(Cl)c1nc(-c2cccnc2)n2nc(-c3ccccc3)cc2n1
**A:** 1

**Q:** Identify the outcome logged in this assay for the molecule shown: COc1ccc(C2C=C(c3ccc(N)cc3)N=C3SC=CN32)cc1OC (centres undefined)
**A:** -1

---

Tested on: MCF7 breast
Test: NCI-60 one-dose screen, 48 h (100 = growth as untreated, 0 = no growth, -100 = all killed)
Settings: 10 µM unless noted
Procedure: Growth inhibition of the MCF7 human tumor cell line is measured as a screen for anti-cancer activity. Cells are grown in 96 well plates and exposed to the test compound for 48 hours. Compounds are tested at a single concentration, which is 10^-5 M for most compounds. The reported endpoint is percent growth (GI% or GIPRCNT), where numbers from 0 - 100% represent growth inhibition, and numbers from -100% - 0 represent cell death. For example, a value of 40 represents 60% growth inhibition. […]
The panel holds about 83,000 compounds, 20% with a hit somewhere; the sample as a whole holds those more often.
Can you tell me growth for the items I'm about to list?
Write the value in % as a bare number.

**Q:** I would be grateful if you could share the reported growth for COc1cc(/C=C/C(=O)c2ccc(Nc3ncnc4cc(OC)c(OC)cc34)cc2)cc(OC)c1 .
**A:** 73

**Q:** I would be grateful if you could share the reported growth for CN1CCN(Cc2ccc(NC(=O)c3cncc(C#Cc4cnc(N)c5ccncc45)c3)cc2C(F)(F)F)CC1 .
**A:** 35.6

**Q:** I would be grateful if you could share the reported growth for COc1ccc(C(=O)n2nc(/C=C/c3ccc(O)c(OC)c3)cc2/C=C/c2ccc(O)c(OC)c2)cc1 .
**A:** -3.07

**Q:** I would be grateful if you could share the reported growth for COc1ccc(-c2c(N)n[nH]c2-c2cc(OC)c(OC)c(OC)c2)cc1 .
**A:** 23

**Q:** I would be grateful if you could share the reported growth for O=C(O)c1cn(C2CC2)c2cc(N3CCN(C(=O)/C=C/c4ccc(Cl)cc4)CC3)c(F)cc2c1=O .
**A:** 89

**Q:** I would be grateful if you could share the reported growth for OCCCCCCNc1ncnc2cc(Cl)ccc12 .
**A:** 97.8

**Q:** I would be grateful if you could share the reported growth for CCc1ccc(-c2ccc(=O)n(-c3ccc(S(N)(=O)=O)cc3)n2)cc1 .
**A:** 30.2

**Q:** I would be grateful if you could share the reported growth for O=[N+]([O-])c1ccc(-c2cn(-c3ccccc3)c(-c3ccccc3)n2)cc1 .
**A:** 74.4

**Q:** I would be grateful if you could share the reported growth for CC(C)(C)NCCC(O)c1cc2c(Cl)cc(Cl)cc2c2cc(C(F)(F)F)ccc12 (centres undefined) .
**A:** -81.3

---

test system: HCT-116 colon; experiment: NCI-60 one-dose screen, 48 h (100 = growth as untreated, 0 = no growth, -100 = all killed); conditions: 10 µM unless noted
About 83,000 compounds went through this panel and 20% of them were active in at least one assay; those are over-represented in the sample as a whole.
Hi, to clarify the labels: 1 covers growth from 20% upward, -1 covers anything below 20%.

**Q:** Tell me whether growth is at least 20% here: NC(=N\N=C/c1ccc(O)cc1)/C(N)=N\N=C/c1ccc(O)cc1
**A:** 1

**Q:** Tell me whether growth is at least 20% here: Cn1ccc(=O)c(S(N)(=O)=O)c1
**A:** 1

**Q:** Tell me whether growth is at least 20% here: O=C(Nc1cccc(-n2cc(-c3ccncc3)c(-c3ccc(Cl)c(O)c3)n2)c1)Nc1cccc(C(F)(F)F)c1
**A:** -1

**Q:** Tell me whether growth is at least 20% here: NC1=NN(O)C2=CC([N+](=O)[O-])C=CC2=N1 (stereo not given)
**A:** 1

**Q:** Tell me whether growth is at least 20% here: CCCN=C1NC(=O)/C(=C/c2nc(-c3ccc(OC)cc3)n3ccccc23)S1
**A:** 1

**Q:** Tell me whether growth is at least 20% here: COc1cc(Cn2cc3c(c2)-c2oncc2CC3)cc(OC)c1OC
**A:** -1

**Q:** Tell me whether growth is at least 20% here: CCOC(=O)c1ccc(NC(=O)N2CC(C)OC(C)C2)cc1 (stereo not given)
**A:** 1

**Q:** Tell me whether growth is at least 20% here: COc1ccc(-c2nc(-c3nc4cc(C)c(C)cc4[nH]3)cc3c2[nH]c2ccccc23)cc1
**A:** -1

**Q:** Tell me whether growth is at least 20% here: COc1cc(/C=C/c2cc(/C=C/c3ccc(O)c(OC)c3)n(C(N)=O)n2)ccc1O
**A:** -1

**Q:** Tell me whether growth is at least 20% here: CCCC(=O)Oc1ccc(/C(=C(\C)c2ccccc2)c2ccc(OCCN(CC)CC)cc2)cc1
**A:** 1

---

test system: 786-0 renal; assay: NCI-60 one-dose screen, 48 h; conditions: 10 µM unless noted
The panel holds about 83,000 compounds, 20% with a hit somewhere; the sample as a whole holds those more often. Active and inactive are the calls of the source. The calls were made as follows: active = growth percent below 10; inactive = the rest.
Your response should consist of one outcome taken from active, inactive

**Q:** Identify the outcome logged in this assay for the molecule shown: COc1cc(-c2nn(-c3cccc(NC(=O)Nc4cccc(C(F)(F)F)c4)c3)cc2-c2ccncc2)ccc1Cl
**A:** active

**Q:** Identify the outcome logged in this assay for the molecule shown: O=C(NS(=O)(=O)c1ccc2ccccc2c1)n1cc(-c2ccncc2)c(-c2ccc(Cl)c(O)c2)n1
**A:** inactive

**Q:** Identify the outcome logged in this assay for the molecule shown: CC(C)(C)N1CCC1C(N)=O (stereo unspecified)
**A:** inactive

**Q:** Identify the outcome logged in this assay for the molecule shown: O=c1cc/c(=N\Nc2ccccc2)c(=O)/c1=N/Nc1ccccc1
**A:** inactive

**Q:** Identify the outcome logged in this assay for the molecule shown: Clc1cccc(-c2cc(-c3ccc4c(c3)OCCO4)[nH]n2)c1
**A:** inactive

**Q:** Identify the outcome logged in this assay for the molecule shown: CO[C@H]1NC(=O)N(S(=O)(=O)c2ccc(Cl)cc2)[C@@H]1OC
**A:** inactive
